- TEST NAME: Metabolic stability in human liver microsomes assessed as intrinsic clearance at 0.5 uM incubated upto 40 mins by LCMS analysis
- Type: ADME, Microsome
- CONDITION: read-out: CLH

[
  {
    "MOLECULAR STRING": "O=C(Nc1cccc(S(=O)(=O)N2CCCCC2)c1)c1cn[nH]c1-c1ccc(Cl)cc1",
    "microsomal CLint at 0.5 µM": "255 µL/min/mg"
  },
  {
    "MOLECULAR STRING": "CN(CCO)c1ccc(C(=O)Nc2cccc(S(=O)(=O)C3CCCC3)n2)c(N2CCC3(CC2)CC3)c1",
    "microsomal CLint at 0.5 µM": "> 399 µL/min/mg"
  },
  {
    "MOLECULAR STRING": "COc1ccc(C(=O)Nc2cccc(S(=O)(=O)C3CCCC3)n2)c(N2CCC3(CC2)CC3)c1",
    "microsomal CLint at 0.5 µM": "> 399 µL/min/mg"
  },
  {
    "MOLECULAR STRING": "CC(C)(C)NS(=O)(=O)c1cccc(NC(=O)c2ncc(NS(C)(=O)=O)nc2N2CCC3(CC2)CC3)n1",
    "microsomal CLint at 0.5 µM": "127 µL/min/mg"
  },
  {
    "MOLECULAR STRING": "O=C(Nc1cccc(S(=O)(=O)NC2CC2)c1)c1cccnc1N1CCC2(CC1)CC2",
    "microsomal CLint at 0.5 µM": "> 399 µL/min/mg"
  },
  {
    "MOLECULAR STRING": "CC(C)(C)NS(=O)(=O)c1cccc(NC(=O)c2ncc(NC(C)(C)CO)nc2N2CCC3(CC2)CC3)c1",
    "microsomal CLint at 0.5 µM": "74 µL/min/mg"
  },
  {
    "MOLECULAR STRING": "CC(C)(C)NS(=O)(=O)c1cccc(NC(=O)c2cccnc2N2CCC3(CC2)CC3)c1",
    "microsomal CLint at 0.5 µM": "> 399 µL/min/mg"
  },
  {
    "MOLECULAR STRING": "CC(C)(C)NS(=O)(=O)c1cccc(NC(=O)c2ccc(NS(C)(=O)=O)cc2N2CCC3(CC2)CC3)c1",
    "microsomal CLint at 0.5 µM": "79 µL/min/mg"
  },
  {
    "MOLECULAR STRING": "O=C(Nc1cccc(S(=O)(=O)N2CCCC2)c1)c1cccnc1N1CCC2(CC1)CC2",
    "microsomal CLint at 0.5 µM": "> 399 µL/min/mg"
  }
]

* * *

- TEST NAME: AUC (0 to 24 hrs) in CD-1 mouse xenografted with human OVCAR-3 cells at 100 mg/kg, ip by LC-MS/MS analysis
- Type: ADME, organism-based
- Design: dose 100 mg/kg, route ip
- CONDITION: in vivo

[
  {
    "MOLECULAR STRING": "CC(C)(C)NS(=O)(=O)c1cccc(NC(=O)c2ccc(NS(=O)(=O)C3(C)CC3)cc2N2CCC3(CC2)CC3)c1",
    "AUC(0-t) / µM·h": 269
  },
  {
    "MOLECULAR STRING": "CC(C)(C)NS(=O)(=O)c1cccc(NC(=O)c2ncc(NS(C)(=O)=O)nc2N2CCC3(CC2)CC3)n1",
    "AUC(0-t) / µM·h": 116
  },
  {
    "MOLECULAR STRING": "CC(C)(C)NS(=O)(=O)c1cccc(NC(=O)c2ccc(NS(C)(=O)=O)cc2N2CCC3(CC2)CC3)c1",
    "AUC(0-t) / µM·h": 147
  }
]

Taken from ChEMBL document CHEMBL5223091.
